# PROTOCOL: Metabolic stability in human microsome assessed as compound remaining measured after 60 min in presence of NADPH regenerating system by LC-MS/MS analysis
# Assay type: ADME, Liver
# TEST CONTEXT: microsomes, 1 h
MEASUREMENT NAME: Stability

Problem: Name the recorded Stability for "Fc1ccccc1Oc1ncnc2scc(C(F)(F)F)c12" .
Result: < 5%

Problem: Name the recorded Stability for "CC(C)(C)c1sc2ncnc(Oc3ccccc3OC(F)(F)F)c2c1-c1ccc(F)cc1" .
Result: > 95%

Problem: Name the recorded Stability for "CC(C)(C)c1sc2ncnc(Oc3ccccc3OC(F)(F)F)c2c1-c1ccc(Cl)c(Cl)c1" .
Result: > 95%

Problem: Name the recorded Stability for "Cc1sc2ncnc(Oc3ccccc3F)c2c1C" .
Result: < 5%

----------
# TARGET OR SYSTEM: Mas-related G-protein coupled receptor member X1 (Homo sapiens, UniProt Q96LB2)
# Sequence (Q96LB2 whole entry): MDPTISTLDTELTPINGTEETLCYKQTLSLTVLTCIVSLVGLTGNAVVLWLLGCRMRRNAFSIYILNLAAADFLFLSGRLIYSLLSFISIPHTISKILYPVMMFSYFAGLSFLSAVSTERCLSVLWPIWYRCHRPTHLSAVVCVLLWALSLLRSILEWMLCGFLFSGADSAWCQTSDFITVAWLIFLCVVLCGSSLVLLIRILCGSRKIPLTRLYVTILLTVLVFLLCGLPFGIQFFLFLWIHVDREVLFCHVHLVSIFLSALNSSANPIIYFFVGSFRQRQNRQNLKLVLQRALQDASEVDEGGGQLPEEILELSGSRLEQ
# PROTOCOL: Positive allosteric modulator activity at human MRGPRX1 transfected in HEK293 cells in presence of BAM8-22 by Fulo4AM dye based FLIPR assay
pEC50: −log10 of the molar value.
MEASUREMENT NAME: pEC50

# annotated cases, reported pEC50 shown
Problem: # value lookup — system Mas-related G-protein coupled receptor member X1 (Homo sapiens, UniProt Q96LB2), readout pEC50, item "Cc1sc2ncnc(Oc3ccc(F)cc3)c2c1C"
Result: 5.96

Problem: # value lookup — system Mas-related G-protein coupled receptor member X1 (Homo sapiens, UniProt Q96LB2), readout pEC50, item "Cc1sc2ncnc(Oc3ccccc3C(F)(F)F)c2c1C"
Result: 6.28

Problem: # value lookup — system Mas-related G-protein coupled receptor member X1 (Homo sapiens, UniProt Q96LB2), readout pEC50, item "Cc1cccc(Oc2ncnc3sc(C)c(C)c23)c1"
Result: 4.60

(P) Cc1sc2ncnc(Oc3cccc(F)c3)c2c1C
(Q) Cc1ccccc1Oc1ncnc2sc(C)c(C)c12
(R) Cc1cc2c(Oc3ccccc3F)ncnc2s1
(S) Cc1ccc(Oc2ncnc3sc(C)c(C)c23)cc1
Problem: Order the entries by their reported pEC50, beginning at the minimum. Respond with the label ranking, as requested.
Result: P, S, R, Q

(A) Cc1sc2ncnc(Oc3ccccc3)c2c1C
(B) Fc1ccccc1Oc1ncnc2sccc12
Problem: # query: argmin of pEC50 over A and B API: response body contains the label of the selected item.
Result: B
(B: 5.38, A: 5.80)
